test system: Babesia gibsoni; test: Antibabesial activity against Babesia gibsoni; type: functional, organism-based
Field: label. Allowed values: condition met (IC50 < 0.7 µg/mL) or condition not met (IC50 >= 0.7 µg/mL).

Solved cases (3 shown):
>>> class_name("COC(=O)[C@]12OC[C@]34[C@H]([C@@H](O)[C@@H]1O)[C@@]1(C)CC(=O)C(O)=C(C)[C@@H]1C[C@H]3OC(=O)[C@H](OC(=O)/C=C(\\C)C(C)(C)O)[C@@H]24 [BRUCEINE C]")
"condition met"
>>> class_name("CC(=O)OC(C)(C)/C(C)=C/C(=O)O[C@H]1C(=O)O[C@@H]2C[C@H]3C(C)=C(O)C(=O)C[C@]3(C)[C@H]3[C@@H](O)[C@H](O)[C@@]4(C(=O)O)OC[C@]32[C@@H]14 [BRUCEANTINOL B]")
"condition not met"
>>> class_name("CC1=CC(=O)[C@@H](O)[C@]2(C)[C@H]3[C@@H](O)[C@H](O)[C@]4(C)OC[C@@]35[C@@H](C[C@@H]12)OC(=O)[C@H](O)[C@]54O [BRUCEINE D]")
"condition not met"

[in] Confirm or reject: IC50 of CC(=O)NCC(=O)O.N=C(N)c1ccc(/N=N/Nc2ccc(C(=N)N)cc2)cc1 [DIMINAZEN ACETURATE] lies strictly below 0.7 µg/mL
[out] condition met

[in] Confirm or reject: IC50 of COC(=O)[C@]12OC[C@]34[C@H]([C@@H](O)[C@@H]1O)[C@@]1(C)CC(=O)C(O)=C(C)[C@@H]1C[C@H]3OC(=O)[C@H](OC(=O)/C=C(\C)C(C)(C)OC(C)=O)[C@@H]24 [BRUCEANTINOL] lies strictly below 0.7 µg/mL
[out] condition met

[in] Confirm or reject: IC50 of CC1=C(O)C(=O)C[C@]2(C)[C@H]3[C@@H](O)[C@H](O)[C@@]4(C(=O)O)OC[C@@]35[C@@H](C[C@@H]12)OC(=O)[C@H](OC(=O)CC(C)C)[C@@H]45 [BRUCEINE J] lies strictly below 0.7 µg/mL
[out] condition not met

[in] Confirm or reject: IC50 of COC(=O)[C@@]12OC[C@]34[C@H]([C@@H](O)[C@@H]1O)[C@@]1(C)CC(=O)C(O)=C(C)[C@@H]1C[C@H]3OC(=O)[C@H](OC(C)=O)[C@@H]24 [BRUCEINE B] lies strictly below 0.7 µg/mL
[out] condition not met

[in] Confirm or reject: IC50 of CC1=CC(=O)[C@@H](O)[C@]2(C)[C@H]3[C@@H](O)[C@H](O)[C@]4(CO)OC[C@@]35[C@@H](C[C@@H]12)OC(=O)[C@H](O)[C@]54O [YADANZIOLIDE A] lies strictly below 0.7 µg/mL
[out] condition met

[in] Confirm or reject: IC50 of COC(=O)[C@@]12OC[C@]34[C@H]([C@@H](O)[C@@H]1O)[C@@]1(C)CC(=O)C(O)=C(C)[C@@H]1C[C@H]3OC(=O)[C@H](OC(=O)CC(C)C)[C@@H]24 [BRUCEINE A] lies strictly below 0.7 µg/mL
[out] condition met
